Source of measurements: patent US8835440B2

Test Target: CCR2 (Homo sapiens)
Construct: Membranes were prepared from THP-1 cells; endogenous in cells; host or cells: THP-1 cells (membrane preparation)
Experimental Protocol: CCR2 receptor membrane binding assay ([125I]MCP-1, THP-1 cell membranes, SPA beads)
Assay Conditions: @ 10 μM test compound; THP-1 membranes; read-out: CCR2 % ctrl @ 10 μM
yes if remaining activity at 10 µM is below 10%. no if not; exact matches included in no.

Challenge: Strictly below 10% in remaining activity at 10 µM? CCS(=O)(=O)NC1CCN(C2CCN(C(=O)c3ncnc(NCc4ccc(C(C)(C)C)cc4)c3C)CC2)CC1 [Example 264]
Response given: yes

Challenge: Strictly below 10% in remaining activity at 10 µM? COCCN(C)C1CCN(C(=O)c2ncnc(NCc3ccc(Cl)c(Cl)c3)c2C)CC1 [Example 181]
Response given: no

Challenge: Strictly below 10% in remaining activity at 10 µM? CCS(=O)(=O)N(C)C1CCN(C2CCN(C(=O)c3ncnc(NCC4CCN(c5ccccc5)CC4)c3C)CC2)CC1 [Example 40]
Response given: yes

Challenge: Strictly below 10% in remaining activity at 10 µM? Cc1cc(CNc2ncnc(C(=O)N3CCC(N4CCCCC4)CC3)c2C)ccc1F [Example 135]
Response given: no

Challenge: Strictly below 10% in remaining activity at 10 µM? CCOC1CCN(C2CCN(C(=O)c3ncnc(NCc4ccc(C(C)(C)C)cc4)c3C)CC2)CC1 [Example 198]
Response given: yes

Challenge: Strictly below 10% in remaining activity at 10 µM? Cc1c(NCc2ccc(Cl)c(Cl)c2)ncnc1C(=O)N1CCC(N2CCOCC2)CC1 [Example 107]
Response given: no

Challenge: Strictly below 10% in remaining activity at 10 µM? Cc1c(NCc2cccc(Cl)c2)ncnc1C(=O)N1CCC(N2CCC(O)CC2)CC1 [Example 123]
Response given: no

Challenge: Strictly below 10% in remaining activity at 10 µM? Cc1c(NCc2ccc(C(C)(C)C)cc2)ncnc1C(=O)N1CCC(N2CCC(Oc3ccc(F)c(F)c3)CC2)CC1 [Example 203]
Response given: no

---

Kindly supply the reported Ki values for the records listed here.
Test Target: CCR2 (Homo sapiens)
Construct: Membranes were prepared from THP-1 cells; endogenous in cells; host or cells: THP-1 cells (membrane preparation)
Experimental Protocol: CCR2 receptor membrane binding assay ([125I]MCP-1, THP-1 cell membranes, SPA beads)
Assay Conditions: dissociation constant hKi; [125I]MCP-1 binding to THP-1 membranes
Report the figure in nM without appending any unit label.

# Ki of CNS(=O)(=O)C1CCN(C2CCN(C(=O)c3ncnc(NCc4ccc(Cl)c(Cl)c4)c3C)CC2)CC1 = 101

# Ki of Cc1nc(NCc2ccc(Cl)c(Cl)c2)c(C)c(C(=O)N2CCC(N3CCC(NS(C)(=O)=O)CC3)CC2)n1 = 58

# Ki of Cc1c(NCCc2ccc(OC(F)(F)F)cc2)ncnc1C(=O)N1CCC(N2CCC(NS(C)(=O)=O)CC2)CC1 = 80

# Ki of Cc1nc(NCC2COc3ccccc3C2)c(C)c(C(=O)N2CCC(N3CCC(NS(C)(=O)=O)CC3)CC2)n1 (stereo not shown) = 127

---

Test Target: CCR2 (Homo sapiens, UniProt P41597)
Construct: Membranes were prepared from THP-1 cells; endogenous in cells
Sequence (P41597 1-360 isoform P41597-2): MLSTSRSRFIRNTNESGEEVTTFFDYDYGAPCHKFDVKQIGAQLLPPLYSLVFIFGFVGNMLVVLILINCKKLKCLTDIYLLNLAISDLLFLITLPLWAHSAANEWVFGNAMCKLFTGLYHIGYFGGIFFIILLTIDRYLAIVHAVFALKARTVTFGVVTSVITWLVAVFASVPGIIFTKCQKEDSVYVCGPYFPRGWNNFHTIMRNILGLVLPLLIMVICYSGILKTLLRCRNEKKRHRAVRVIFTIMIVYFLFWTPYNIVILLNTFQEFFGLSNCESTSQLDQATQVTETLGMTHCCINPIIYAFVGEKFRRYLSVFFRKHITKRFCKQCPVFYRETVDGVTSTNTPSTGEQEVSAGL
Experimental Protocol: CCR2 receptor membrane binding assay ([125I]MCP-1, THP-1 cell membranes, SPA beads)
Assay Conditions: dissociation constant hKi; [125I]MCP-1 binding to THP-1 membranes
TRUE if Ki is below 0.09 µM. FALSE if not; exact matches included in FALSE.

Challenge: Strictly below 0.09 µM in Ki? Cc1c(NCCc2ccc(Cl)c(Cl)c2)ncnc1C(=O)N1CCC(N2CCC(F)(F)CC2)CC1 [Example 164]
Response given: FALSE

Challenge: Strictly below 0.09 µM in Ki? Cc1c(NCC2Cc3ccccc3O2)ncnc1C(=O)N1CCC(N2CCC(N(C)S(C)(=O)=O)CC2)CC1 (stereo not drawn) [Example 159qb]
Response given: TRUE

Challenge: Strictly below 0.09 µM in Ki? Cc1c(C(=O)N2CCC(N3CCC(O)CC3)CC2)ccnc1NCc1ccc(Cl)c(Cl)c1 [Example 275]
Response given: FALSE

Challenge: Strictly below 0.09 µM in Ki? Cc1c(NC[C@H]2CC[C@H](c3ccc(Cl)cc3)O2)ncnc1C(=O)N1CCC(N2CCC(N(C)S(C)(=O)=O)CC2)CC1 [Example 159wa]
Response given: TRUE

Challenge: Strictly below 0.09 µM in Ki? Cc1c(NCCOCc2ccccc2)ncnc1C(=O)N1CCC(N2CCC(O)CC2)CC1 [Example 18]
Response given: FALSE

Challenge: Strictly below 0.09 µM in Ki? Cc1c(NCCc2ccc(Cl)c(Cl)c2)ncnc1C(=O)N1CCC(N2CCCC2)CC1 [Example 253]
Response given: FALSE

Challenge: Strictly below 0.09 µM in Ki? Cc1cc(COc2ncnc(C(=O)N3CCC(N4CCC(N(C)S(C)(=O)=O)CC4)CC3)c2C)ccc1Cl [Example 292]
Response given: FALSE

Challenge: Strictly below 0.09 µM in Ki? Cc1c(NC[C@H]2C[C@H](c3ccc(Cl)cc3)C2)ncnc1C(=O)N1CCC(N2CCC(N(C)S(C)(=O)=O)CC2)CC1 [Example 159tb]
Response given: TRUE

Challenge: Strictly below 0.09 µM in Ki? Cc1c(NCC2Cc3ccccc3O2)ncnc1C(=O)N1CCC(N2CCC(O)CC2)CC1 (stereo not drawn) [Example 27]
Response given: FALSE

Challenge: Strictly below 0.09 µM in Ki? Cc1c(NCc2ccc(C(C)(C)C)cc2)ncnc1C(=O)N1CCC(N2CCC(NS(C)(=O)=O)CC2)CC1 [Example 69]
Response given: TRUE

Challenge: Strictly below 0.09 µM in Ki? Cc1c(NCC2CCCC(c3ccccc3)C2)ncnc1C(=O)N1CCC(N2CCCCC2)CC1 (stereo not drawn) [Example 131]
Response given: TRUE

Challenge: Strictly below 0.09 µM in Ki? Cc1c(NCCc2ccc(Cl)c(Cl)c2)ncnc1C(=O)N1CCC(N2CCCC(O)CC2)CC1 (stereo not drawn) [Example 247]
Response given: FALSE

Challenge: Strictly below 0.09 µM in Ki? CO[C@H]1CN(C2CCN(C(=O)c3ncnc(NCc4ccc(Cl)c(Cl)c4)c3C)CC2)CC[C@H]1NS(C)(=O)=O [Example 185]
Response given: FALSE

Challenge: Strictly below 0.09 µM in Ki? Cc1c(NCc2ccc(C(C)(C)C)cc2)ncnc1C(=O)N1CCC(N2CCC(CNS(C)(=O)=O)CC2)CC1 [Example 199]
Response given: FALSE

---

Test Target: CCR2 (Homo sapiens, UniProt P41597)
Construct: Membranes were prepared from THP-1 cells; endogenous in cells
Experimental Protocol: CCR2 receptor membrane binding assay ([125I]MCP-1, THP-1 cell membranes, SPA beads)
Assay Conditions: dissociation constant hKi; [125I]MCP-1 binding to THP-1 membranes
Readout Type: log10 of Ki (log10 of the value in nM)
Form field - Quantity: Ki; Unit: nM; Scale: log10

Form field log10 of Ki for item Cc1c(NCc2ccc(Cl)c(Cl)c2)ncnc1C(=O)N1CCC(N2CC[C@H](C(N)=O)C2)CC1 [Example 256] on CCR2 (Homo sapiens, UniProt P41597): 2.64

Form field log10 of Ki for item Cc1c(NCc2coc(-c3ccccc3)c2)ncnc1C(=O)N1CCC(N2CCC(N(C)S(C)(=O)=O)CC2)CC1 [Example 159mb] on CCR2 (Homo sapiens, UniProt P41597): 1.15

Form field log10 of Ki for item COC1COCCC1NC1CCN(C(=O)c2ncnc(NCC3CCC[C@@H](c4ccccc4)C3)c2C)CC1 (stereo partly shown) [Example 228b] on CCR2 (Homo sapiens, UniProt P41597): 0.30

Form field log10 of Ki for item Cc1c(NCC2Cc3ccccc3C2)ncnc1C(=O)N1CCC(N2CCC(N(C)S(C)(=O)=O)CC2)CC1 [Example 61] on CCR2 (Homo sapiens, UniProt P41597): 1.66

Form field log10 of Ki for item COC1CCN(C2CCN(C(=O)c3ncnc(NCC4CCN(c5ccccc5)CC4)c3C)CC2)CC1 [Example 96] on CCR2 (Homo sapiens, UniProt P41597): 2.97

Form field log10 of Ki for item Cc1nc(NC[C@H]2CCN(c3ccccc3)C2)c(C)c(C(=O)N2CCC(N3CCC(N(C)S(C)(=O)=O)CC3)CC2)n1 [Example 159] on CCR2 (Homo sapiens, UniProt P41597): 1.40

Form field log10 of Ki for item Cc1c(NCCc2ccc(Cl)c(Cl)c2)ncnc1C(=O)N1CCC(N2CCC(NS(C)(=O)=O)CC2)CC1 [Example 168] on CCR2 (Homo sapiens, UniProt P41597): 1.71
